molecular target: Voltage-gated inwardly rectifying potassium channel KCNH2 (Homo sapiens); assay: Inhibition of human ERG expressed in CHO cells
Sequence (Q12809 whole entry): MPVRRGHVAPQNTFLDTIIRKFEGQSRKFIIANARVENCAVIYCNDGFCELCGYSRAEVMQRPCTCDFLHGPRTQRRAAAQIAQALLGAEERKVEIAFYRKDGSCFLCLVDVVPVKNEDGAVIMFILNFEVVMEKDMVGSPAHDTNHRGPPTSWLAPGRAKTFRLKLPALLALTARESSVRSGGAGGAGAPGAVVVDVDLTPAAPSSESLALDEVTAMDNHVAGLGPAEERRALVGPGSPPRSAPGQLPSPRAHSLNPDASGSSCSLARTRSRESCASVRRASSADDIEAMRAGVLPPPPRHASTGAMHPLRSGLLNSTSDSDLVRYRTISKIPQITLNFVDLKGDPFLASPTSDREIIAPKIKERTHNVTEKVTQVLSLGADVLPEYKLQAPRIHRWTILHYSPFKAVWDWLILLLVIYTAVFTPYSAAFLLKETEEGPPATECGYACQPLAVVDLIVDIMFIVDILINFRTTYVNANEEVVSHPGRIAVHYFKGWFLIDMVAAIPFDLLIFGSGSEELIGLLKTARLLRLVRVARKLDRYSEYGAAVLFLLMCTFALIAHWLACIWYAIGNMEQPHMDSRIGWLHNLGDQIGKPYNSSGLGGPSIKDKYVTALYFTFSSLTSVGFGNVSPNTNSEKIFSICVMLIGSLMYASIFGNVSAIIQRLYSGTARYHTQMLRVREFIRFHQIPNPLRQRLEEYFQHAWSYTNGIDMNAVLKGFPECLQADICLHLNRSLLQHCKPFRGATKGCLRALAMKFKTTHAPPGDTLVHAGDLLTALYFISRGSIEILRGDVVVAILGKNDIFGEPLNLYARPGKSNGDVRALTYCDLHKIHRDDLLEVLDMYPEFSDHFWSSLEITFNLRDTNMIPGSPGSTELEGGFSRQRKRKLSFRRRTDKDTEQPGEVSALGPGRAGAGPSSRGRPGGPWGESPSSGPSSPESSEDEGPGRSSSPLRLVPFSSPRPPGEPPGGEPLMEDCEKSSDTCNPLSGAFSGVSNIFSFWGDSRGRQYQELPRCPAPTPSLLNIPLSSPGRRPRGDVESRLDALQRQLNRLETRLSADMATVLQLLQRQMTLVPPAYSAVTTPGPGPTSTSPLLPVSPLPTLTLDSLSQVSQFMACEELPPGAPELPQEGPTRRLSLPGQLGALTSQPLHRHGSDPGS
pIC50: −log10 of the molar value.

- substance.smiles: "Fc1ccccc1-c1nc2ccn(Cc3cc(-c4ccc(C(F)(F)F)cc4C(F)(F)F)no3)cc-2n1"
  pIC50: 6.10

---

assay: Oral bioavailability in beagle dog at 5 mg/kg by LC/MS/MS analysis; type: ADME, organism-based, Canis lupus familiaris; conditions: in vivo

- compound: "CCCOc1ccc(-c2cc(Cn3cc4nc(-c5cccc(F)c5F)nc-4cn3)on2)c(C(F)(F)F)c1"
  bioavailability [%]: 12
- compound: "CCCOc1ccc(-c2cc(C(C(=O)OCCCO)n3cc4nc(-c5cccc(F)c5F)nc-4cn3)on2)c(C(F)(F)F)c1 (centres undefined)"
  bioavailability [%]: 63
- compound: "CCCOc1ccc(-c2cc(C(C(=O)OC)n3cc4nc(-c5cccc(F)c5F)nc-4cn3)on2)c(C(F)(F)F)c1 (centres undefined)"
  bioavailability [%]: 51
- compound: "CCCOc1ccc(-c2cc(C(C(=O)OCCOCCO)n3cc4nc(-c5cccc(F)c5F)nc-4cn3)on2)c(C(F)(F)F)c1 (centres undefined)"
  bioavailability [%]: 91

---

assay: Cmax in CD rat at 30 mg/kg by LC/MS/MS analysis; format: ADME, organism-based; set-up: dose 30 mg/kg; conditions: in vivo

- substance.smiles: "Fc1cccc(-c2nc3cnn(Cc4ccc(-c5ccc(C(F)(F)F)cc5C(F)(F)F)nc4)cc-3n2)c1F"
  units.text: "ng/mL"
  Cmax: 2800
- substance.smiles: "Fc1cccc(-c2nc3cnn(Cc4cc(-c5ccc(C(F)(F)F)cc5C(F)(F)F)no4)cc-3n2)c1F"
  units.text: "ng/mL"
  Cmax: 7200
